- system.under.test: T1, Nrd1 307-491 R429D (Saccharomyces cerevisiae, UniProt P53617 307-491, R429D)
- T1 sequence: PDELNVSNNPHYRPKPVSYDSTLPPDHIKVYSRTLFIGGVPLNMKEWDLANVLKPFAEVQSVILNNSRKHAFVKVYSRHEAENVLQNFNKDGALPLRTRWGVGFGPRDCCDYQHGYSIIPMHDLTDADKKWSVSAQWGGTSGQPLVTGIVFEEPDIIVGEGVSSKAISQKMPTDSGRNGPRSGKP
- method.description: fluorescence anisotropy; FA: 10 nM RNA, 50 mM sodium phosphate pH 8, 150 mM NaCl, 10 mM beta-mercaptoethanol, 20 C (protein stock in 300 mM NaCl); NMR: same buffer with 300 mM NaCl, 20
- test.settings: protein: recombinant; tags: C-terminal His6; label: 5' fluorescein or TAMRA (FA); unlabeled (NMR)
This section presents binders with their documented Kd values.
readout.kind: Kd (µM)

binder	unit.annotation	test.result
GUAA (ssRNA)	µM	24.1
GCGGGGC (ssRNA)	µM	60.1

The values you see were collected from paper PMC4081072.
